Source of measurements: the NIST ThermoML archive (doi:10.1021/je1012235)

conditions: 363.15 K; 101.33 kPa; Liquid
Value Type: viscosity (mPa·s)

Here is how some molecules turned out for viscosity.
                                   molecule  meas_value
0  CCCCCCCCCCCCCCCCCCCCCC(=O)OC [methyl docosanoate]       2.709
1  CCCCCC/C=C\CCCCCCCC(=O)OC [methyl (Z)-9-hexadecenoate]       1.207
2  CC/C=C\C/C=C\C/C=C\CCCCCCCC(=O)OC [methyl (Z,Z,Z)-9,12,15-octadecatrienoate]       1.402
3  CCCCC/C=C\C/C=C\CCCCCCCC(=O)OCC [ethyl linoleate]       1.569
4  CCCCCCCCCCCCCCCCCCCCCCCC(=O)OC [methyl tetracosanoate]        3.19
5  CCCCCCCC/C=C\CCCCCCCCCC(=O)OC [methyl cis-11-eicosenoate]       2.019

A. CCCCCCCCCCCCCCCCCCCC(=O)OCC [ethyl eicosanoate]
B. CC/C=C\C/C=C\C/C=C\CCCCCCCC(=O)OCC [ethyl 9,12,15-octadecatrienoate]
Quick check, higher viscosity between A and B ? Answer = label.
A
